What binding signal was measured for each of the following?
- MEASURED TARGET: T1, UNK ZnF1-6 (called full-length) (human, UniProt Q9C0B0 30-357)
- T1 sequence: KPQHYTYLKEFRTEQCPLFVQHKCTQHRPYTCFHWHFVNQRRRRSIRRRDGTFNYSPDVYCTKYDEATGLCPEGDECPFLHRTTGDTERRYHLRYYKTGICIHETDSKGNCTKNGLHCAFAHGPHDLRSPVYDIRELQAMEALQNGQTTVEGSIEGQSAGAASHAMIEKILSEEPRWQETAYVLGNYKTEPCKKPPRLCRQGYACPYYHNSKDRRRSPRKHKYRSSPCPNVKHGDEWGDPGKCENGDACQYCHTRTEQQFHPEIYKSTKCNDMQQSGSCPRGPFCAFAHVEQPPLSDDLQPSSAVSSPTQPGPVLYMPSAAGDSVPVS
- PROTOCOL NOTES: nsRBNS (natural sequence RNA bind-n-seq); RBNS binding buffer (assumed for nsRBNS): 25 mM Tris pH 7.5, 150 mM KCl, 3 mM MgCl2, 0.01% Triton X-100, 500 ug/ml BSA, 20 U/ml SUPERase-In, 4 C; UNK is unkempt and MSI1 is Musashi-1; names of the RNAs are library labels; protein concentration not given here; high values mean tight binding
The full ranking holds about 5,800 sequences; the median of “enrichment r” is about 0.68, and the highest 2% start at about 11. Only a sample is shown.
Please state the figure in enrichment R; there is no need to write the unit.

Query: Name the recorded binding signal of the item chr17:29262523:29262623:-|3pUTR|ENSG00000108256|msi1_unk|FALSE|overlapping (ssRNA) RNA: GGGAGUUCUACAGUCCGACGAUCACUUUGACUGAUAUUGUAAUUUUCAAAUGUAUAAUAUGUUUACAGAUGUGCCCUGCAUUUAGUCUGCCUUGUUCCUAUUUUGAUUUUUGUUGAGUCUCCUGCCUGCUUGCCAAAAGCUAGCAACAGAGGAUUGAGCAUCA in your answer.
Reply: 0.807

Query: Name the recorded binding signal of the item chr14:81473690:81473791:-|3pUTR|ENSG00000071537|msi1|total|mutant (ssRNA) RNA: GGGAGUUCUACAGUCCGACGAUCCAGUGUUUUGGAAGUAUGCAUGCAGGCCUAUAAAUGAAAAACACAAUUCUUUAUGUGUACCGCAUGUGUAUUAAUGUCUAACUACAUACGCAAAAACUUCCUUUACAGAGGUUCGGACUACAACAGAGGAUUGAGCAUCA in your answer.
Reply: 0.563

Query: Name the recorded binding signal of the item chr1:16124655:16124788:-|3pUTR|ENSG00000142627|msi1|total|mutant (ssRNA) RNA: GGGAGUUCUACAGUCCGACGAUCAGACUGUGAACUUGACUGGGUGAGACCCAAAGCGGUCCCUGUCCCUCCCGUGCCUUCUUCCGACCCUCGGGCCCCAUCCUCAUCCCUGACUGGCCAAACCCUUGCUUUCCUGGGCCUUUGCAACAGAGGAUUGAGCAUCA in your answer.
Reply: 1.06

Query: Name the recorded binding signal of the item ENSG00000127995:stop:overlap|stop_codon|ENSG00000127995|stop_codon|NA|stop_codon (ssRNA) RNA: GGGAGUUCUACAGUCCGACGAUCUAGCUGCAUUUUUUUGUGGACUCCUCAUCUUAUCAUCCAUUCAAGAUAAAUCAAAACAUUAGGUUCCAAAAAUUCUAAAAAACCUAAACUCUUCAGGCUACCUUUGUGUGUCUCUAGAAGCAACAGAGGAUUGAGCAUCA in your answer.
Reply: 0.828

Query: Name the recorded binding signal of the item chr1:154944474:154944574:-|3pUTR|ENSG00000163346|msi1_unk|FALSE|overlapping (ssRNA) RNA: GGGAGUUCUACAGUCCGACGAUCUCGAGGCCCAGCACGAGGACUUACCCUGGGGUUUUGUUAGGUUUGGAAGCAGCUGUCCCUAGGGGGUGAAGUCCCCCCCCUUUUUUUUUUUACCCCUGCUUCUCCCACGGCUUCACCUCCCAACAGAGGAUUGAGCAUCA in your answer.
Reply: 1.37

Query: Name the recorded binding signal of the item chr10:22535117:22535218:-|3pUTR|ENSG00000150867|unk|FALSE|unique (ssRNA) RNA: GGGAGUUCUACAGUCCGACGAUCAAGGUACACAUACAUUAUUUGAGUAACUGUUUCCUUGGGGGCCAAUCUGUGUAUGCUUUUAGAAGUUUACAGAAUGCUUUUAUUUUUGUCUAUAACAAACAGUCUGUCAUUUAUUUCUGUCAACAGAGGAUUGAGCAUCA in your answer.
Reply: 0.472

Query: Name the recorded binding signal of the item chr20:63196482:63196583:-|3pUTR|ENSG00000149658|msi1|total|mutant (ssRNA) RNA: GGGAGUUCUACAGUCCGACGAUCUGAUUUUUGCCCAGAUGGAUCUGCAUUUAUUUGUACUUUUUCUAUGUAUUAUAAUCCUGCCGAAGUCACUAAUAAAGGAGUAUUUUUUUUGUCAGCUUAUCAAUCAGACUGAUCUAAUGUCAACAGAGGAUUGAGCAUCA in your answer.
Reply: 0.665

Query: Name the recorded binding signal of the item chr4:152882748:152882856:+|CDS|ENSG00000164144|unk|FALSE|unique (ssRNA) RNA: GGGAGUUCUACAGUCCGACGAUCCAGAAACUGCUGGCUAAAAAUGGAGAGACUCUUCUUGGGGCCAUUAAUUUUUUCAUUGCUAGUGUGAACACUUUGGUGAAUAAAACCAUUGAAGAUACAUUAAUGACUGUGAAACAGUAUCAACAGAGGAUUGAGCAUCA in your answer.
Reply: 0.365

Query: Name the recorded binding signal of the item ENSG00000112146:stop:overlap|stop_codon|ENSG00000112146|stop_codon|NA|stop_codon (ssRNA) RNA: GGGAGUUCUACAGUCCGACGAUCACACCCCCUUGUUCUUCGCCAGAGUAAGGAGCUACACAGCUUUCUCAGAAAGGCCUCUGUAGAGCCUCAAGUCCAGUCCUCUAUCACUUUUGCAUGAAUUAAAGUAUAUAGCGCAAAAGACAACAGAGGAUUGAGCAUCA in your answer.
Reply: 0.367

Query: Name the recorded binding signal of the item chrX:153456492:153456651:-|CDS|ENSG00000213397|control|control|control (ssRNA) RNA: GGGAGUUCUACAGUCCGACGAUCAUGGAGCACUUCGAGGACACCAGGGAGAAGAACGAGGCCUUGCUGGGGGAGCUCUUCUCUAGCCCCCACCUGCAGAUGCUCCUGAAUCCAGAGUGCGACCCGUGGCCCCUGGACAUGCAGCAACAGAGGAUUGAGCAUCA in your answer.
Reply: 0.759

Query: Name the recorded binding signal of the item chr9:37126384:37126485:+|CDS|ENSG00000147905|unk|total|mutant (ssRNA) RNA: GGGAGUUCUACAGUCCGACGAUCUAUCGAGAUGAGUCAUCCCGUGAACUGAGUGUUGACCGUGAGGUGGAAUUUCAACUCUACCGCCAAAUUCAUUAUGCCCAAGAUCUUGAUGAUGUCAUCAGGGAGGAAGAGCAUGAAGAACAACAGAGGAUUGAGCAUCA in your answer.
Reply: 0.413

Query: Name the recorded binding signal of the item chr13:42886387:42888493:-|three_prime_utr|ENSG00000133106|control|control|control (ssRNA) RNA: GGGAGUUCUACAGUCCGACGAUCCAUAUUUAAUCUCUACUGCCAGGGAAAUGCUACAUUAUUUUUCUAAUUGGAAGUAUAAUUAGAGUGAUGUUGGUAGGGUAGAAAAAGAGGGAGUCACUUGAUGCUUUCAGGUUAAUCAGACAACAGAGGAUUGAGCAUCA in your answer.
Reply: 0.481

Query: Name the recorded binding signal of the item chr18:33333173:33333394:-|CDS|ENSG00000166960|control|control|control (ssRNA) RNA: GGGAGUUCUACAGUCCGACGAUCACAUUUUGAAAAACAAAAGACAGAGUUAGAAGAAGCAAAUGCAAAGAUUCAAGCAGACAUAGACUACAUGAAUGAACAUGGCCCUCUACUGGACUCUAAGCAGAAUCAGGAACUUCAAGACAACAGAGGAUUGAGCAUCA in your answer.
Reply: 0.467
